- assay: Half life in rat at 1 mg/kg, iv
- Type: ADME, organism-based
- Parameters: dose 1 mg/kg, route intravenous
- condition.label: in vivo
endpoint: half-life (min)
Please state the figure in min; there is no need to write the unit.

// sample Cc1noc2c1-c1sc(C)c(C)c1C(c1ccc(Cl)cc1)=N[C@H]2CC(N)=O , its half-life was 83.4

Looking up Cc1noc2c1-c1sc(C)c(C)c1C(c1ccc(C#N)cc1)=N[C@H]2CC(N)=O , I see its half-life listed as 23.6

* * *

- assay: AUC in mouse at 5 mg/kg, po
- Type: ADME, organism-based
- Parameters: dose 5 mg/kg, route oral
- condition.label: plasma
endpoint: AUC
Report field: quantity (unit follows the number).

Entry Cc1noc2c1-c1sc(C)c(C)c1C(c1ccc(Cl)cc1)=N[C@H]2CC(N)=O — recorded AUC = 723 ng·h/mL

* * *

- assay: Intrinsic clearance in rat liver microsomes
- Assay type: ADME, Microsome
- condition.label: read-out: CLH
Provide the recorded microsomal CLint for the entries that follow.
Answer with a number only, understood to be in µL/min/mg.

// sample Cc1noc2c1-c1sc(C)c(C)c1C(c1ccc(C#N)cc1)=N[C@H]2CC(N)=O , its microsomal CLint was 8.9

Entry Cc1noc2c1-c1sc(C)c(C)c1C(c1ccccc1)=N[C@H]2CC(N)=O — recorded microsomal CLint = 160

Record summary for Cc1noc2c1-c1sc(C)c(C)c1C(c1ccc(N)nc1)=N[C@H]2CC(N)=O : reported microsomal CLint = 18

Entry under test: Cc1noc2c1-c1sc(C)c(C)c1C(c1ccc(Cl)cc1)=N[C@H]2CC(N)=O . Its microsomal CLint was 27

* * *

- assay: Volume of distribution at steady state in dog at 1 mg/kg, iv
- Format: ADME, organism-based, Canis lupus familiaris
- Design: dose 1 mg/kg, route intravenous
- condition.label: in vivo, read-out: Vdss
endpoint: Vd (L/kg)
The reply should contain only the number, in L/kg.

Per the record, Cc1noc2c1-c1sc(C)c(C)c1C(c1ccc(Cl)cc1)=N[C@H]2CC(N)=O has Vd of 1.27

* * *

I'd be grateful if you could share measured bioavailability for these entries.
- assay: Oral bioavailability in rat at 5 mg/kg
- Format: ADME, organism-based
- condition.label: in vivo
Just so you know, I need the unit written after the number.

// Cc1noc2c1-c1sc(C)c(C)c1C(c1ccc(C#N)cc1)=N[C@H]2CC(N)=O : bioavailability value = 44%

Recorded result, Cc1noc2c1-c1sc(C)c(C)c1C(c1ccc(Cl)cc1)=N[C@H]2CC(N)=O , bioavailability: 31%

* * *

- assay: Intrinsic clearance in mouse liver microsomes
- Format: ADME, Microsome
- condition.label: read-out: CLH
endpoint: microsomal CLint (µL/min/mg)
I only need the number, in µL/min/mg, no unit after it.

Notebook: Cc1noc2c1-c1sc(C)c(C)c1C(c1ccc(Cl)cc1)=N[C@H]2CC(N)=O , microsomal CLint read as 140

* * *

- assay: Volume of distribution at steady state in rat at 1 mg/kg, iv
- Assay type: ADME, organism-based
- Design: dose 1 mg/kg, route intravenous
- condition.label: in vivo, read-out: Vdss
endpoint: Vd

Field Vd (entry Cc1noc2c1-c1sc(C)c(C)c1C(c1ccc(C#N)cc1)=N[C@H]2CC(N)=O ) reads 2.22 L/kg

Data point: Cc1noc2c1-c1sc(C)c(C)c1C(c1ccc(Cl)cc1)=N[C@H]2CC(N)=O ; Vd = 2.45 L/kg

* * *

- assay: Half life in dog at 1 mg/kg, iv
- Type: ADME, organism-based, Canis lupus familiaris
- Parameters: dose 1 mg/kg, route intravenous
- condition.label: in vivo
endpoint: half-life

compound Cc1noc2c1-c1sc(C)c(C)c1C(c1ccc(Cl)cc1)=N[C@H]2CC(N)=O , half-life observed: 180 min

* * *

- assay: Plasma protein binding in rat
- Type: ADME, cell-free
- condition.label: read-out: PPB (converted)
endpoint: fraction unbound
Output: the number by itself.

Sure, the documented fraction unbound for Cc1noc2c1-c1sc(C)c(C)c1C(c1ccc(Cl)cc1)=N[C@H]2CC(N)=O is 0.008

* * *

- study.system: Bromodomain-containing protein 4 (Homo sapiens, UniProt O60885)
- assay: Inhibition of His-FLAG-tagged BRD4 binding domain1 (unknown origin) binding to H4-TetraAc-biotin peptide after 20 mins by AlphaLISA
Consider the following compounds; for each one, report its IC50.
Quick reminder: number only, in nM, skip the unit.

Just so you know, measured IC50 for Cc1noc(N)c1-c1ccccc1 came out at 33000

IC50 measured on Cc1noc2c1-c1sc(C)c(C)c1C(c1ccc(C#N)cc1)=N[C@H]2CC(N)=O = 33

Quick note, IC50 for Cc1noc2c1-c1sc(C)c(C)c1C(c1ccc(Cl)cc1)=N[C@H]2Cc1ncc[nH]1 landed at 200

Briefly, IC50 measured for Cc1noc2c1-c1sc(C)c(C)c1C(N1CCOCC1)=N[C@H]2CC(N)=O : 1100

Cc1noc2c1-c1sc(C)c(C)c1C(C1CCOCC1)=N[C@H]2CC(N)=O has a reported IC50 of 6200

Data point: Cc1noc2c1-c1sc(C)c(C)c1C(c1ccc(N)nc1)=N[C@H]2CC(N)=O ; IC50 = 73

Lab note: Cc1noc2c1-c1sc(C)c(C)c1C(c1ccccc1)=N[C@H]2CC(N)=O gave IC50 of 29

IC50 recorded for this compound, Cc1noc2c1-c1sc(C)c(C)c1C(c1ccc(Cl)cn1)=N[C@H]2CC(N)=O , is 72

For reference, reported IC50 for CC(=O)NC[C@@H]1N=C(c2ccc(Cl)cc2)c2c(sc(C)c2C)-c2c(C)noc21 stands at 190

Notebook: CCNC(=O)C[C@H]1N=C(c2ccc(Cl)cc2)c2c(sc(C)c2C)-c2c(C)noc21 , IC50 read as 2100

* * *

- assay: AUC in rat at 5 mg/kg, po
- Type: ADME, organism-based
- Design: dose 5 mg/kg, route oral
- condition.label: plasma
Please provide measured AUC for the entries that follow.
Number in ng·h/mL, nothing else.

Lab note: measured AUC of Cc1noc2c1-c1sc(C)c(C)c1C(c1ccc(Cl)cc1)=N[C@H]2CC(N)=O was 605

Short answer for Cc1noc2c1-c1sc(C)c(C)c1C(c1ccc(C#N)cc1)=N[C@H]2CC(N)=O : AUC was 504

* * *

- assay: Plasma protein binding in mouse
- Assay type: ADME, cell-free
- condition.label: read-out: PPB (converted)
endpoint: fraction unbound
Field format: numeric only.

// field: fraction unbound; key: Cc1noc2c1-c1sc(C)c(C)c1C(c1ccc(Cl)cc1)=N[C@H]2CC(N)=O ; value = 0.019

* * *

Provide the recorded IC50 for the entries that follow.
- study.system: Bromodomain-containing protein 4 (Homo sapiens)
- assay: Inhibition of His-FLAG-tagged BRD4 binding domain1 (unknown origin) binding to H4-TetraAc-biotin peptide after 20 mins by AlphaLISA
State just the number; it will be interpreted in nM.

IC50 for Cc1noc2c1-c1sc(C)c(C)c1C(c1ccc(C#N)cc1)=N[C@H]2[C@@H](C)C(N)=O is 250

The measured IC50 associated with CCCC1=N[C@@H](CC(N)=O)c2onc(C)c2-c2sc(C)c(C)c21 reads 300

The recorded IC50 for entry COC(=O)NC[C@@H]1N=C(c2ccc(Cl)cc2)c2c(sc(C)c2C)-c2c(C)noc21 equals 86

* * *

- study.system: Bromodomain-containing protein 4 (Homo sapiens, UniProt O60885)
- assay: Inhibition of BRD4 in human Raji cells assessed as reduction of MYC expression after 4 hrs
- Type: cell-based
Give IC50 for every item shown.
The figure you give is taken to be in nM; do not add the unit.

Memo: CC(=O)NC[C@@H]1N=C(c2ccc(Cl)cc2)c2c(sc(C)c2C)-c2c(C)noc21 , reported IC50: 2200

The measured IC50 associated with CCNC(=O)C[C@@H]1N=C(c2ccc(Cl)cc2)c2c(sc(C)c2C)-c2c(C)noc21 reads 320

Sample Cc1noc2c1-c1sc(C)c(C)c1C(c1ccc(Cl)cc1)=N[C@H]2CC(=O)OC(C)(C)C ; IC50 observed: 2100

Note to self: IC50 recorded for Cc1noc2c1-c1sc(C)c(C)c1C(c1ccc(C#N)cc1)=N[C@H]2[C@@H](C)C(N)=O was 710

Field IC50 (entry Cc1noc2c1-c1sc(C)c(C)c1C(c1ccc(Cl)cc1)=N[C@H]2Cc1nccs1 ) reads 2100

According to the records, this molecule Cc1noc2c1-c1sc(C)c(C)c1C(c1ccc(Cl)cc1)=N[C@H]2CC(N)=O displays IC50 of 140

Memo: Cc1noc2c1-c1sc(C)c(C)c1C(c1ccccc1Cl)=N[C@H]2CC(N)=O , reported IC50: 1900

// recorded IC50 for Cc1noc2c1-c1sc(C)c(C)c1C(c1ccc(C#N)cc1)=N[C@H]2CC(N)=O : 91

Notebook: Cc1noc2c1-c1sc(C)c(C)c1C(c1cccc(Cl)c1)=N[C@H]2CC(N)=O , IC50 read as 470

Memo: CCCC1=N[C@@H](CC(N)=O)c2onc(C)c2-c2sc(C)c(C)c21 , reported IC50: 1500

Given item Cc1noc2c1-c1sc(C)c(C)c1C(c1ccc(N)nc1)=N[C@H]2CC(N)=O , the value recorded as its IC50 is 380

# IC50 (molecule: Cc1noc2c1-c1sc(C)c(C)c1C(c1ccc(Cl)cn1)=N[C@H]2CC(N)=O ) is 240

The molecule listed as Cc1noc2c1-c1sc(C)c(C)c1C(c1ccc(Cl)cc1)=N[C@H]2Cc1ncc[nH]1 shows IC50 equal to 3600

IC50 for Cc1noc2c1-c1sc(C)c(C)c1C(c1ccccc1)=N[C@H]2CC(N)=O is 180

// field: IC50; key: Cc1cc(Cl)ccc1C1=N[C@@H](CC(N)=O)c2onc(C)c2-c2sc(C)c(C)c21 ; value = 160

IC50 measured on COC(=O)NC[C@@H]1N=C(c2ccc(Cl)cc2)c2c(sc(C)c2C)-c2c(C)noc21 = 1900
